Recorded values, source patent US20230256092A1.

Target: T1, loop3 hCCR4-hCCR8 (human, UniProt P51685 1-355)
T1 construct: chimera on Expi293 cells; hCCR8 264-280 replaced
Assay: FCM, Expi293 transfectants; blank cell = same binding activity as wild-type hCCR8
quantity_kind: binding result

8F7 (antibody, V domains shown, mouse hybridoma antibody, purified) VH: EVQLVESGGRLVQPKRSLKLSCAASGFTFNPYAMYWIRQAPGQGLEWVARIRSKSNNYATYYADSVKDRFTISRDDSQSMLYLQMNNLKTEDTAMYYCVRGHQGTMDYWGQGTSVTVSS VL: DIVMTQAAPSVPVTPGESVSISCRSSKSLLHSNGNTYLYWFLQRPGQSPQLLTYRMSNLASGVPDRFSGSGSGTAFTLRISRVEAEDVGVYYCMQHLEYPFTFGGGTKLEIKR; binds
